# TESTED SYSTEM: human adenosine A2A receptor (Homo sapiens)
# Sequence (P29274 whole entry): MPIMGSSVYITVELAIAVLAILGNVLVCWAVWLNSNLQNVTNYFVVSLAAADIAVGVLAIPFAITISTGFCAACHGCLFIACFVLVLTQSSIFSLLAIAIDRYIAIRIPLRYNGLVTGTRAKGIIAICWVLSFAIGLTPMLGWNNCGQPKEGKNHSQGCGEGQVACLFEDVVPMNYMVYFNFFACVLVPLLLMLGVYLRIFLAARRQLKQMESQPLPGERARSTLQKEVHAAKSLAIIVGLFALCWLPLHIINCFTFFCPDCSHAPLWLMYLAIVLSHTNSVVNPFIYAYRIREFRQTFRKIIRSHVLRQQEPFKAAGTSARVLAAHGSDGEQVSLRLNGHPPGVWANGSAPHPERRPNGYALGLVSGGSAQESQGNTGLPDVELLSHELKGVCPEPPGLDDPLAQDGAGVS
# TEST DETAILS: Adenosine A2A Receptor Functional Assay (A2A GAL2)
# TEST PARAMETERS: CHO-K1 cells overexpressing human A2A receptor, cAMP inducible beta-galactosidase reporter, 15 nM NECA agonist challenge; read-out: A2AGal2
METRIC: IC50 (nM)

In [3]: df
Out[3]:
                                     smiles  unit_abbreviation  result
0  CCCN1CCN(c2cccc3c2-c2nc(N)nc(-c4ccccc4)c2C3=O)CC1                 nM    10.3

[P] COc1ccc(N2CCN(c3cccc4c3-c3nc(N)nc(-c5ccccc5)c3C4=O)CC2)cc1
[Q] Nc1nc(-c2ccccc2)c2c(n1)-c1c(cccc1N1CCN(c3ccc(Cl)cc3)CC1)C2=O
Request: For the pair P and Q , which entry has the numerically smaller recorded IC50? Selection: enter the item's label.
Result: P
(P: 0.14 nM, Q: 1.5 nM)

###

# TESTED SYSTEM: human adenosine A2A receptor (Homo sapiens)
# Construct: expressed in transfected cells; host or cells: CHO-K1 cells with a cAMP inducible beta-galactosidase reporter gene
# TEST DETAILS: Adenosine A2A Receptor Functional Assay (A2A GAL2)
# Assay type: cell-based
# TEST PARAMETERS: ratio of A1Gal2 to A2AGal2 values
METRIC: A1/A2A

>>> df
                                     smiles   result
0  Nc1nc(-c2ccccc2)c2c(n1)-c1c(cccc1N1CCN(c3ccc(C(F)(F)F)cc3)CC1)C2=O  765.432
1  Nc1nc(-c2ccccc2)c2c(n1)-c1c(cccc1N1CCC(N3CCOCC3)CC1)C2=O  57.4468

[1] Nc1nc(-c2ccccc2)c2c(n1)-c1c(cccc1N1CCN(CCc3ccccc3)CC1)C2=O
[2] Nc1nc(-c2ccccc2)c2c(n1)-c1c(cccc1N1CCN(c3ccc(Cl)cc3)CC1)C2=O
[3] Nc1nc(-c2ccccc2)c2c(n1)-c1c(cccc1N1CCN(c3ccc(F)cc3F)CC1)C2=O
[4] CS(=O)(=O)c1ccc(N2CCN(c3cccc4c3-c3nc(N)nc(-c5ccccc5)c3C4=O)CC2)cc1
Request: Order the records by A1/A2A, with each subsequent value no larger than the one before. Returns: the labels listed in the requested order.
Result: 3, 1, 4, 2

###

# TESTED SYSTEM: human adenosine A1 receptor (Homo sapiens)
# Sequence (P30542 whole entry): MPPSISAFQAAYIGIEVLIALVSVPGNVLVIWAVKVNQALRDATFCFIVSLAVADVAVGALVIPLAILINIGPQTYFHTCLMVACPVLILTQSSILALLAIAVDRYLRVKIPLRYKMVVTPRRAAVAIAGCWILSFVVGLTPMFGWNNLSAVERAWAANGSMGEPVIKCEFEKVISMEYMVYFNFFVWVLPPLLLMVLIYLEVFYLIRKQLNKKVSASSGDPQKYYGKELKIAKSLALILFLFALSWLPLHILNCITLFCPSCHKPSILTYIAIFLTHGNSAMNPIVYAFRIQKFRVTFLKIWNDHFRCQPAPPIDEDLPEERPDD
# TEST DETAILS: Adenosine A1 Receptor Functional Assay (A1GAL2)
# TEST PARAMETERS: CHO-K1 cells overexpressing human A1 receptor, cAMP inducible beta-galactosidase reporter, 4 nM r-PIA/1 uM Forskolin agonist challenge
METRIC: IC50 (nM)

Please review the entries below; each comes with its answer.
                                     smiles  unit_abbreviation  result
0  Nc1nc(-c2ccccc2)c2c(n1)-c1c(cccc1N1CCN(CC3CC3)CC1)C2=O                 nM     818
1  N#Cc1ccc(N2CCN(c3cccc4c3-c3nc(N)nc(-c5ccccc5)c3C4=O)CC2)cc1                 nM    3500
2  COCCOc1ccc(N2CCN(c3cccc4c3-c3nc(N)nc(-c5ccccc5)c3C4=O)CC2)c(F)c1                 nM     750

[1] N#Cc1cccnc1N1CCN(c2cccc3c2-c2nc(N)nc(-c4ccccc4)c2C3=O)CC1
[2] N#Cc1ccccc1N1CCN(c2cccc3c2-c2nc(N)nc(-c4ccccc4)c2C3=O)CC1
[3] COCCOc1ccc(N2CCN(c3cccc4c3-c3nc(N)nc(-c5ccccc5)c3C4=O)CC2)cc1
Request: Order the records by IC50, with each subsequent value no larger than the one before. Returns: the labels listed in the requested order.
Result: 2, 1, 3
(2: 2900 nM, 1: 1400 nM, 3: 250 nM)

###

# TESTED SYSTEM: human adenosine A2A receptor (Homo sapiens)
# TEST DETAILS: Adenosine A2A Receptor Functional Assay (A2A GAL2)
# TEST PARAMETERS: CHO-K1 cells overexpressing human A2A receptor, cAMP inducible beta-galactosidase reporter, 15 nM NECA agonist challenge; read-out: A2AGal2
METRIC: IC50 (nM)

>>> print(df.to_string())
                                     smiles  metric  unit_abbreviation  result
0  Nc1nc(-c2ccccc2)c2c(n1)-c1c(cccc1N1CCN(c3ccc(F)cn3)CC1)C2=O    IC50                 nM     1.6
1  Nc1nc(-c2ccccc2)c2c(n1)-c1c(cccc1N1CCN(c3ncccc3F)CC1)C2=O    IC50                 nM     2.6
2  Nc1nc(-c2ccccc2)c2c(n1)-c1c(cccc1N1CCN(CC3CC3)CC1)C2=O    IC50                 nM    10.6

[I] Nc1nc(-c2ccccc2)c2c(n1)-c1c(cccc1N1CCN(c3ccc(F)cc3F)CC1)C2=O
[II] Nc1nc(-c2ccccc2)c2c(n1)-c1c(cccc1N1CCC(O)(c3ccccc3)CC1)C2=O
Request: Lab note: check whether I or II shows the higher recorded IC50. Selection: enter the item's label.
Result: I

[P] COc1ccc(C2CCN(c3cccc4c3-c3nc(N)nc(-c5ccccc5)c3C4=O)CC2)cc1
[Q] Nc1nc(-c2ccccc2)c2c(n1)-c1c(cccc1N1CCN(c3ccccn3)CC1)C2=O
[R] N#Cc1ccc(N2CCN(c3cccc4c3-c3nc(N)nc(-c5ccccc5)c3C4=O)CC2)nc1
Request: In this exercise, place the 3 compounds in ascending sequence of their recorded IC50. Returns: the labels listed in the requested order.
Result: Q, R, P

###

# TESTED SYSTEM: human adenosine A2A receptor (Homo sapiens)
# Construct: expressed in transfected cells; host or cells: CHO-K1 cells with a cAMP inducible beta-galactosidase reporter gene
# TEST DETAILS: Adenosine A2A Receptor Functional Assay (A2A GAL2)
# Assay type: cell-based
# TEST PARAMETERS: CHO-K1 cells overexpressing human A2A receptor, cAMP inducible beta-galactosidase reporter, 15 nM NECA agonist challenge; read-out: A2AGal2
METRIC: IC50 (nM)

Please review the entries below; each comes with its answer.
>>> print(df.to_string())
                                     smiles                             tested_system  result
0  NC(=O)c1ccc(C2CCN(c3cccc4c3-c3nc(N)nc(-c5ccccc5)c3C4=O)CC2)cc1  human adenosine A2A receptor (Homo sapiens)     1.5
1  N#Cc1cccnc1N1CCN(c2cccc3c2-c2nc(N)nc(-c4ccccc4)c2C3=O)CC1  human adenosine A2A receptor (Homo sapiens)     3.2
2  Nc1nc(-c2ccccc2)c2c(n1)-c1c(cccc1N1CCN(c3ccc(C(F)(F)F)cc3)CC1)C2=O  human adenosine A2A receptor (Homo sapiens)     8.1
3  CC(=O)c1ccc(N2CCN(c3cccc4c3-c3nc(N)nc(-c5ccccc5)c3C4=O)CC2)cc1  human adenosine A2A receptor (Homo sapiens)     0.2

[A] Nc1nc(-c2ccccc2)c2c(n1)-c1c(cccc1N1CCN(CCc3ccccc3)CC1)C2=O
[B] N#Cc1ccc(N2CCN(c3cccc4c3-c3nc(N)nc(-c5ccccc5)c3C4=O)CC2)cc1
Request: For the pair A and B , which entry has the numerically smaller recorded IC50? Selection: enter the item's label.
Result: B
(B: 0.6 nM, A: 2.27 nM)

###

# TESTED SYSTEM: human adenosine A2A receptor (Homo sapiens)
# Construct: expressed in transfected cells; host or cells: CHO-K1 cells with a cAMP inducible beta-galactosidase reporter gene
# TEST DETAILS: Adenosine A2A Receptor Functional Assay (A2A GAL2)
# Format: cell-based
# TEST PARAMETERS: ratio of A1Gal2 to A2AGal2 values
METRIC: A1/A2A

Please review the entries below; each comes with its answer.
In [3]: df
Out[3]:
                                     smiles                             tested_system   result
0  CC(=O)C1(c2ccccc2)CCN(c2cccc3c2-c2nc(N)nc(-c4ccccc4)c2C3=O)CC1  human adenosine A2A receptor (Homo sapiens)   52.381
1  COCCOc1ccc(N2CCN(c3cccc4c3-c3nc(N)nc(-c5ccccc5)c3C4=O)CC2)c(F)c1  human adenosine A2A receptor (Homo sapiens)  1530.61
2  Nc1nc(-c2ccccc2)c2c(n1)-c1c(cccc1N1CCC(O)(c3ccccc3)CC1)C2=O  human adenosine A2A receptor (Homo sapiens)  462.687

[1] CCCN1CCN(c2cccc3c2-c2nc(N)nc(-c4ccccc4)c2C3=O)CC1
[2] Nc1nc(-c2ccccc2)c2c(n1)-c1c(cccc1N1CCN(c3ccc(F)cn3)CC1)C2=O
[3] COCCOc1ccc(N2CCN(c3cccc4c3-c3nc(N)nc(-c5ccccc5)c3C4=O)CC2)cc1
Request: In this exercise, place the 3 molecules in ascending sequence of their recorded A1/A2A. Returns: the labels listed in the requested order.
Result: 1, 3, 2
